- System: XF 498 CNS
- Assay notes: NCI tumour cell line growth inhibition, 48 h
Outcome measure: TGI

- Compound: "CN(CCN(C)C(=O)CCn1ccc(=O)[nH]c1=O)C(=O)CCn1ccc(=O)[nH]c1=O"
  TGI: "> 100 µM"
- Compound: "[N-]=[N+]=Nc1c(Br)c(=O)[nH]c(=O)n1COCCO"
  TGI: "> 100 µM"
- Compound: "COc1cc(C2(C)SCCCS2)c(I)c(OC)c1OC"
  TGI: "> 100 µM"

// switching to the query compound
Quick one: TGI for CCCCCCCCCCCCCCC(O)C1CCC(C(O)CCC(O)CCCCCC(O)CC2=CC(C)OC2=O)O1 (centres undefined) ?
4.88 µM

###

- Tested on: CCRF-CEM leukemia
- Assay notes: NCI tumour cell line growth inhibition, 48 h; in the data active means GI50 below about 0.43 µM; inactive means the rest
Return exactly one item of yes (active), no (inactive)

Solved entries (count: 6):
- Molecule: "NC(=S)N/N=C\\c1nccc2c(C(F)(F)C(F)(F)C(F)(F)F)cccc12"
  Answer label: "yes"
- Molecule: "N#Cc1ncc(N2C(=O)C3(CCC3)N(c3ccc(OC4CCNCC4)nc3)C2=S)cc1C(F)(F)F"
  Answer label: "no"
- Molecule: "Cc1[nH]n(-c2ccccc2)c(=O)c1C(=O)c1ccccc1"
  Answer label: "no"
- Molecule: "C[C@H]1CCC/C=C/[C@@H]2C[C@H](O)C[C@H]2[C@H](O)[C@@H](SC2OC(CO)C(O)C(O)C2O)CC(=O)O1 (stereo partly drawn)"
  Answer label: "no"
- Molecule: "CC1(C)N=C(N)N=C(N)N1c1ccc(OCCCCNC(=O)c2ccc(S(=O)(=O)F)cc2)c(Cl)c1"
  Answer label: "no"
- Molecule: "C(#Cc1ccccc1C#Cc1ccccn1)c1ccccn1"
  Answer label: "no"

Hey, what did the test say about COc1ccc(S(=O)(=O)n2c3ccccc3n3ncc(-c4nnc(C)o4)c23)cc1 ?
no

Hey, what did the test say about CCC1OC(/C(C)=C/C(C)/C=C/C2C(C)C2/C=C/C2OC(CC(=O)O)CC(O)C2O)CC=C1C (stereo not drawn) ?
no

Hey, what did the test say about Cc1cc(S(=O)(=O)Nc2nc3cc(-c4ccsc4)sc3c(=O)n2N)c(S)cc1Cl ?
no

###

- System: SNB-75 CNS
- Assay notes: NCI tumour cell line growth inhibition, 48 h
Outcome measure: TGI

- Molecule: "CCC1OC(/C(C)=C/C(C)/C=C/C2C(C)C2/C=C/C2OC(CC(=O)O)CC(O)C2O)CC=C1C (stereo not given)"
  Endpoint value: "> 50 µM"
- Molecule: "CC(C)CC(NC(=O)C(COc1ccc([N+](=O)[O-])cc1)Cc1ccccc1)C(=O)Nc1ccccc1 (stereo not given)"
  Endpoint value: "7.84 µM"
- Molecule: "C/C=C/C(=O)[O-].N.N.N.N.N.[Co+3].[O-][Cl+3]([O-])([O-])[O-]"
  Endpoint value: "> 100 µM"
- Molecule: "c1ccc(CNc2ncnc3n[nH]nc23)cc1"
  Endpoint value: "> 100 µM"

Quick one: TGI for c1ccc(COc2cccc3cccnc23)cc1 ?
> 100 µM

###

Reported values of GI50 for individual entries
- Test system: UO-31 renal
- Assay notes: NCI tumour cell line growth inhibition, 48 h

Known results for compounds:
- Compound: "O=C(O)c1cc2c(c3ccsc13)-c1ccccc1CC2"
  Target entity: "UO-31 renal"
  Endpoint value: "29300 nM"
- Compound: "C(#Cc1ccccc1C#Cc1ccccn1)c1ccccn1"
  Target entity: "UO-31 renal"
  Endpoint value: "16400 nM"
- Compound: "CS(=O)(=O)Nc1cc(-c2ccc3ncnc(Nc4cccc(Cl)c4F)c3c2)cnc1Cl"
  Target entity: "UO-31 renal"
  Endpoint value: "1240 nM"

Quick one: GI50 for Cc1ccc2cnc(N)c(C#Cc3cncc(C(=O)Nc4ccc(CN5CCN(C)CC5)c(C(F)(F)F)c4)c3)c2c1 ?
589 nM

Quick one: GI50 for CC[C@H](C)[C@H](NC(=O)c1nccn1C)C(=O)N(C)[C@H](C[C@@H](OC(C)=O)c1nc(C(=O)N[C@@H](Cc2ccccc2)C[C@H](C)C(=O)OC)cs1)C(C)C ?
2900 nM

Quick one: GI50 for O=C(Nc1ccc(-c2ccnc(Nc3ccc(N4CCOCC4)cc3)n2)cc1)C1CCCN1 (configuration not stated) ?
4060 nM

Quick one: GI50 for Cc1ccc(/C=C2\CN(Cc3cn(CCNc4ccnc5cc(Cl)ccc45)nn3)C/C(=C\c3ccc(C)cc3)C2=O)cc1 ?
1440 nM

###

Reported values of TGI for individual entries
- Test system: U251 CNS
- Assay notes: NCI tumour cell line growth inhibition, 48 h

Known results for compounds:
- Compound: "CCOC(=O)C1=C(C)N(c2ccc(C)cc2)C2(O)C=CC(=O)C3=C(O)c4ccccc4C(=O)C312 (configuration not stated)"
  TGI: "> 100 µM"
- Compound: "C#CCOc1cccc(Nc2ncc3ncn(C4CCN(C(=O)CCl)C4)c3n2)c1 (configuration not stated)"
  TGI: "> 62.5 µM"
- Compound: "C=C1C[C@@H]2[C@H](CC[C@]3(C)C(=O)CC[C@@H]23)[C@@]2(C)C=CC(=O)C=C12"
  TGI: "> 70.5 µM"
- Compound: "COC(=O)C(C(=O)OC)C1CC(=O)c2c(Br)sc(Br)c21 (configuration not stated)"
  TGI: "29.8 µM"

Quick one: TGI for COc1cc(-c2[o+]c3cc(O)cc(OC4OC(CO)C(O)C(O)C4O)c3cc2OC2OC(CO)C(O)C(O)C2O)cc(OC)c1O (configuration not stated) ?
> 100 µM

Quick one: TGI for [N-]=[N+]=Nc1c(Br)c(=O)[nH]c(=O)n1COCCO ?
> 100 µM

Quick one: TGI for O=S1(=O)CC(Br)C(Br)C1 (configuration not stated) ?
23.6 µM

###

- Tested on: MCF7 breast
- Assay notes: NCI tumour cell line growth inhibition, 48 h
Outcome measure: GI50

Known results for molecules:
- Molecular string: "Cc1cc(S(=O)(=O)Nc2nc3cc(-c4ccsc4)sc3c(=O)n2N)c(S)cc1Cl"
  GI50: "46.9 µM"
- Molecular string: "CC(=O)NS(=O)(=O)c1ccc(-n2nc(-c3ccccc3)cc2C2=CC(=O)C=CC2=O)cc1"
  GI50: "> 100 µM"
- Molecular string: "O[C@H](CN1CC1)[C@@H](O)CN1CC1"
  GI50: "1.84 µM"

Quick one: GI50 for S=C(Nc1ccccc1)N1CCn2c1nsc2=Nc1ccccc1 ?
> 100 µM

Quick one: GI50 for COc1cc(CNC(=O)CCSc2nc3ccccc3c(=O)n2Cc2cc(OC)c(OC)c(OC)c2)cc(OC)c1OC ?
3.46 µM

###

- System: OVCAR-8 ovarian
- Assay notes: NCI tumour cell line growth inhibition, 48 h
Outcome measure: TGI

Known results for compounds:
- Compound: "C/C=C/C(=O)[O-].N.N.N.N.N.[Co+3].[O-][Cl+3]([O-])([O-])[O-]"
  Target entity: "OVCAR-8 ovarian"
  Outcome measure: "TGI"
  Endpoint value: "> 100 µM"
- Compound: "C=C1C(=O)O[C@H]2[C@H]([C@H](C)CCCC(C)=O)O[C@H]([C@@]3(C)CCC(=O)O3)C[C@@H]12"
  Target entity: "OVCAR-8 ovarian"
  Outcome measure: "TGI"
  Endpoint value: "> 100 µM"
- Compound: "COc1cc2c3c(c1OC)Oc1ccc(cc1)CC1c4c(cc(OC)c(OC)c4Oc4ccc(cc4)CC3N(C)CC2)CCN1C (centres undefined)"
  Target entity: "OVCAR-8 ovarian"
  Outcome measure: "TGI"
  Endpoint value: "60 µM"
- Compound: "COC(=O)[C@@H]1O[C@]12[C@@H](CO[Si](C)(C)C(C)(C)C)O[C@@H](n1cc(C)c(=O)[nH]c1=O)[C@@H]2O[Si](C)(C)C(C)(C)C"
  Target entity: "OVCAR-8 ovarian"
  Outcome measure: "TGI"
  Endpoint value: "53.4 µM"
- Compound: "O=C(O)c1oc2cccc3c2c1CCC3"
  Target entity: "OVCAR-8 ovarian"
  Outcome measure: "TGI"
  Endpoint value: "> 100 µM"

Quick one: TGI for N#Cc1ncc(N2C(=O)C3(CCC3)N(c3ccc(OC4CCNCC4)nc3)C2=S)cc1C(F)(F)F ?
76.2 µM

Quick one: TGI for CCCCCCc1cn([C@H]2C[C@H](O)[C@@H](CO)O2)c(=O)[nH]c1=O ?
> 100 µM

Quick one: TGI for Cc1ccc(S(=O)(=O)N2CCN(CCO)CCN(S(=O)(=O)c3ccc(C)cc3)CCN(CCO)CC2)cc1 ?
> 100 µM

Quick one: TGI for O=C(Nc1cccc([N+](=O)[O-])c1)c1cc2ccccc2cc1O ?
26.1 µM

Quick one: TGI for C=CCn1c(=O)c2ccccc2[n+]2c(-c3cccc([N+](=O)[O-])c3)csc12 ?
> 100 µM
